System: HOP-92 NSCLC
test-protocol: NCI-60 one-dose screen, 48 h
test-parameters: 10 µM unless noted
Compounds without any hit were thinned out: in the full panel of roughly 83,000, 20% have a hit. The source made the active and inactive calls. The calls were made as follows: active = growth percent below 10; inactive = the rest.
Outcome codes: 1.0 = active, 0.0 = inactive

>  <compound>
COC1C(=O)CCC2(CO2)C1(O)C1(C)OC1CCC(C)C (configuration not stated)

>  <assigned-label>
0.0

$$$$
>  <compound>
CC(C)Sc1ncnc2nc[nH]c12

>  <assigned-label>
0.0

$$$$
>  <compound>
CCN(C(=O)Nc1ccccc1Cl)c1ccccc1

>  <assigned-label>
0.0

$$$$
>  <compound>
O=C(N/N=C\c1ccc(Cl)cc1Cl)c1ccncc1

>  <assigned-label>
0.0

$$$$
>  <compound>
c1ccc2c(NCCCN3CCN(CCCNc4c5ccccc5nc5ccccc45)CC3)c3ccccc3nc2c1

>  <assigned-label>
1.0

$$$$
>  <compound>
CC(CC(CCC(=O)O)(c1ccccc1)c1ccccc1)N(C)C (configuration not stated)

>  <assigned-label>
0.0

$$$$
>  <compound>
COc1ccc(C2CC(c3ccccc3)=Nc3ccccc3S2)cc1 (configuration not stated)

>  <assigned-label>
0.0

$$$$

* * *

growth by entry:
Tested on: RPMI-8226 leukemia
test-protocol: NCI-60 one-dose screen, 48 h (100 = growth as untreated, 0 = no growth, -100 = all killed)
test-parameters: 10 µM unless noted
About 83,000 compounds went through this panel and 20% of them were active in at least one assay; those are over-represented in the sample as a whole. Calls of active or inactive are those of the source. Rule for the calls: active = growth percent below 10; inactive = the rest.
observation-type: growth

>  <molecule>
CC(C)N(C(=O)c1ccccc1)C(C)C

>  <system-under-test>
RPMI-8226 leukemia

>  <result>
105% (inactive)

$$$$
>  <molecule>
CCNc1ncnc2[nH]ncc12

>  <system-under-test>
RPMI-8226 leukemia

>  <result>
73.9% (inactive)

$$$$
>  <molecule>
Cc1cc(Cl)cc(Cc2cc(Cl)cc(C)c2O)c1O

>  <system-under-test>
RPMI-8226 leukemia

>  <result>
-22.8% (active)

$$$$
>  <molecule>
CCCC1OC(c2ccco2)OCC1CC (stereo not drawn)

>  <system-under-test>
RPMI-8226 leukemia

>  <result>
94.8% (inactive)

$$$$
>  <molecule>
Clc1ccc(-c2noc(/C=C\c3ccccc3)n2)cc1

>  <system-under-test>
RPMI-8226 leukemia

>  <result>
110% (inactive)

$$$$
>  <molecule>
O=C(Oc1ccccc1Cl)c1ccc(Cl)cc1Cl

>  <system-under-test>
RPMI-8226 leukemia

>  <result>
98.9% (inactive)

$$$$
>  <molecule>
O=C1CSc2ccccc2N1

>  <system-under-test>
RPMI-8226 leukemia

>  <result>
95.2% (inactive)

$$$$
>  <molecule>
O=S(Cc1ccccc1)/C(=C/NC(=S)Nc1cc(Cl)ccc1Cl)c1ccccc1 (stereo not drawn)

>  <system-under-test>
RPMI-8226 leukemia

>  <result>
102% (inactive)

$$$$
>  <molecule>
COc1cc(C(=O)O)c(O)c(C(C)(C)C)c1

>  <system-under-test>
RPMI-8226 leukemia

>  <result>
106% (inactive)

$$$$
>  <molecule>
O=C(O)c1c[nH]c2ccccc2c1=O

>  <system-under-test>
RPMI-8226 leukemia

>  <result>
97.8% (inactive)

$$$$
>  <molecule>
NC(CSSCC(N)C(=O)O)C(=O)O (stereo not drawn)

>  <system-under-test>
RPMI-8226 leukemia

>  <result>
53.6% (inactive)

$$$$
>  <molecule>
Cc1ccc(Cc2ccc(C)cc2)cc1

>  <system-under-test>
RPMI-8226 leukemia

>  <result>
106% (inactive)

$$$$
>  <molecule>
COc1ccc2c(c1)Nc1ccccc1S2

>  <system-under-test>
RPMI-8226 leukemia

>  <result>
95.4% (inactive)

$$$$
>  <molecule>
Oc1ccc(N=Cc2ccc(OCc3ccccc3)cc2)cc1

>  <system-under-test>
RPMI-8226 leukemia

>  <result>
96.7% (inactive)

$$$$
>  <molecule>
CC12CCC3c4ccc(O)cc4CCC3C1CCC2=O (stereo not drawn)

>  <system-under-test>
RPMI-8226 leukemia

>  <result>
98.8% (inactive)

$$$$
>  <molecule>
ON1CCCC1

>  <system-under-test>
RPMI-8226 leukemia

>  <result>
88.2% (inactive)

$$$$
>  <molecule>
CC(=O)OCC1CCC(COC(C)=O)CC1 (stereo not drawn)

>  <system-under-test>
RPMI-8226 leukemia

>  <result>
103% (inactive)

$$$$
>  <molecule>
O=Cc1ccc(Cl)c(Cl)c1

>  <system-under-test>
RPMI-8226 leukemia

>  <result>
105% (inactive)

$$$$
>  <molecule>
COc1cccc(N=CNc2cccc(OC)c2)c1

>  <system-under-test>
RPMI-8226 leukemia

>  <result>
92% (inactive)

$$$$
>  <molecule>
CN(C)Cc1ccccn1

>  <system-under-test>
RPMI-8226 leukemia

>  <result>
90.9% (inactive)

$$$$
>  <molecule>
COC1OC(COC(C)=O)C(OC(C)=O)C(OC(C)=O)C1OC(C)=O (stereo not drawn)

>  <system-under-test>
RPMI-8226 leukemia

>  <result>
96.4% (inactive)

$$$$
>  <molecule>
Nc1nc(N)nc(N2CCCCC2)n1

>  <system-under-test>
RPMI-8226 leukemia

>  <result>
101% (inactive)

$$$$
>  <molecule>
O=C(O)c1ccccc1Cc1ccc2c(c1)CCCC2

>  <system-under-test>
RPMI-8226 leukemia

>  <result>
108% (inactive)

$$$$
>  <molecule>
O=[N+]([O-])c1ccc2[nH]c(=S)n(/C=C(/c3ccc(Cl)cc3Cl)S(=O)(=O)Cc3ccc(Cl)cc3Cl)c2c1

>  <system-under-test>
RPMI-8226 leukemia

>  <result>
98.7% (inactive)

$$$$
>  <molecule>
CCCOCc1cn[nH]n1

>  <system-under-test>
RPMI-8226 leukemia

>  <result>
111% (inactive)

$$$$
>  <molecule>
COc1ccc(C2CC(c3ccccc3)=Nc3ccccc3S2)cc1 (stereo not drawn)

>  <system-under-test>
RPMI-8226 leukemia

>  <result>
82.1% (inactive)

$$$$
>  <molecule>
CC(C)=CCC[C@@H](C)[C@H]1CC[C@@]2(C)C3=C(CC[C@]12C)[C@@]1(C)CC[C@H](O)C(C)(C)[C@@H]1CC3

>  <system-under-test>
RPMI-8226 leukemia

>  <result>
102% (inactive)

$$$$
>  <molecule>
CC(=O)Nc1ccc(C(=O)c2ccc(S(=O)(=O)Nc3ccccc3)cc2)cc1

>  <system-under-test>
RPMI-8226 leukemia

>  <result>
68.1% (inactive)

$$$$
>  <molecule>
ClCc1cccc2c(CCl)cccc12

>  <system-under-test>
RPMI-8226 leukemia

>  <result>
31% (inactive)

$$$$
>  <molecule>
Cc1cccc(C)c1NC(=S)/N=C\c1c(O)[nH]c(=O)[nH]c1=O

>  <system-under-test>
RPMI-8226 leukemia

>  <result>
98.3% (inactive)

$$$$
>  <molecule>
CCOC(=O)/C(O)=C(\C=N\C(=S)Nc1ccc(Cl)c(Cl)c1)C(=O)OCC

>  <system-under-test>
RPMI-8226 leukemia

>  <result>
80.1% (inactive)

$$$$
>  <molecule>
COC(=O)C1(CC(C)=O)NC(=S)NC(=O)C1C#N (stereo not drawn)

>  <system-under-test>
RPMI-8226 leukemia

>  <result>
114% (inactive)

$$$$
>  <molecule>
CCCCCCCCCCCCCC/C=C\C(CC(=O)O)C(=O)O (stereo not drawn)

>  <system-under-test>
RPMI-8226 leukemia

>  <result>
113% (inactive)

$$$$
>  <molecule>
Cc1ccccc1NC(=O)Oc1ccc(Cl)cc1C(=O)c1ccccc1

>  <system-under-test>
RPMI-8226 leukemia

>  <result>
85.6% (inactive)

$$$$
>  <molecule>
Nc1ccc(F)cc1F

>  <system-under-test>
RPMI-8226 leukemia

>  <result>
102% (inactive)

$$$$
>  <molecule>
CC(=O)Oc1c(Cl)cccc1-c1ccccc1

>  <system-under-test>
RPMI-8226 leukemia

>  <result>
99.3% (inactive)

$$$$
>  <molecule>
CCOC(=O)c1ccc(NC(C)=O)o1

>  <system-under-test>
RPMI-8226 leukemia

>  <result>
103% (inactive)

$$$$
>  <molecule>
CC(=O)NC(CCc1ccc(Cl)c(Cl)c1)c1cccc(O)c(=O)c1 (stereo not drawn)

>  <system-under-test>
RPMI-8226 leukemia

>  <result>
13.9% (inactive)

$$$$

* * *

System: SR leukemia
test-protocol: NCI-60 one-dose screen, 48 h
test-parameters: 10 µM unless noted
About 83,000 compounds went through this panel and 20% of them were active in at least one assay; those are over-represented in the sample as a whole. Calls of active or inactive are those of the source. The calls were made as follows: active = growth percent below 10; inactive = the rest.
Outcome codes: active, inactive

>  <compound>
COc1ccc(-c2csc(NC(=O)Nc3nc(-c4ccc(OC)cc4)cs3)n2)cc1

>  <assigned-label>
inactive

$$$$
>  <compound>
CC(C)C(=O)OCCOc1ccc(C(C)(C)C)cc1

>  <assigned-label>
inactive

$$$$
>  <compound>
Cc1ccc(S(=O)(=O)NC(=O)NCCSSCCNC(=O)NS(=O)(=O)c2ccc(C)cc2)cc1

>  <assigned-label>
inactive

$$$$
>  <compound>
Cc1cc(Cc2ccccc2)c(O)c(Cc2ccccc2)c1

>  <assigned-label>
inactive

$$$$
>  <compound>
C=CCC(OC(C)=O)c1ccc(OC)c(OC)c1 (centres undefined)

>  <assigned-label>
inactive

$$$$
>  <compound>
CCC(C)c1c(N)n(S(=O)(=O)c2ccc(C)cc2)oc1=O (centres undefined)

>  <assigned-label>
inactive

$$$$
>  <compound>
C=C(c1ccc(N(C)C)cc1)c1ccc(N(C)C)cc1

>  <assigned-label>
inactive

$$$$
>  <compound>
Oc1cccc(CNC2CCCCC2)c1

>  <assigned-label>
inactive

$$$$
>  <compound>
S=C(Sc1ccc(Cl)cc1)Sc1ccc(Cl)cc1

>  <assigned-label>
active

$$$$
>  <compound>
CCN(CC)c1ccc2nc3ccc(N=Nc4ccc(N(C)C)cc4)cc3[n+](-c3ccccc3)c2c1

>  <assigned-label>
active

$$$$
>  <compound>
CC(C)(CC(=O)O)CC(=O)O

>  <assigned-label>
inactive

$$$$
>  <compound>
O=C(c1ccccc1)c1ccc(-c2ccc(O)cc2)cc1

>  <assigned-label>
inactive

$$$$
>  <compound>
N#CC1(O)CCCCC1

>  <assigned-label>
inactive

$$$$
>  <compound>
OCC1CCC(O)C(CO)N1 (centres undefined)

>  <assigned-label>
inactive

$$$$
>  <compound>
Cc1c(Cl)cccc1N=C=S

>  <assigned-label>
inactive

$$$$
>  <compound>
COc1ccc(C)cc1NC(=O)SC(C)C

>  <assigned-label>
inactive

$$$$
>  <compound>
ClCC(Cl)C1CCC(Cl)C(Cl)C1 (centres undefined)

>  <assigned-label>
inactive

$$$$
>  <compound>
S=C(NCc1ccccc1)N1CCC(CCCC2CCN(C(=S)NCc3ccccc3)CC2)CC1

>  <assigned-label>
inactive

$$$$
>  <compound>
N#Cc1ccc2nc[nH]c2c1

>  <assigned-label>
inactive

$$$$
